assay: Drug excretion in human urine after 96 hrs; type: ADME, tissue-based; conditions: read-out: Drug excretion
measurement label: dose excreted at 96 h (%)
Enter your answer as a number in %; do not include the unit.

Exercise: Given the entry `O=C(O)c1cc(-c2ccc(F)cc2F)ccc1O` , report its measured dose excreted at 96 h.
Solution: 95

###

tested on: Rattus norvegicus; assay: Toxicity in po dosed rat assessed as gastric hemorrhage; format: organism-based, Stomach; conditions: in vivo
measurement label: ED50 (mg/kg)
Write down the numeric answer in mg/kg and omit the unit.

molecule	system under test	ED50, mg/kg
CC1=C(CC(=O)O)c2cc(F)ccc2/C1=C\c1ccc([S+](C)[O-])cc1 (stereo not given) [SULINDAC]	Rattus norvegicus	27
CC(=O)Oc1ccccc1C(=O)O [ASPIRIN]	Rattus norvegicus	81

Next item in the queue.
Exercise: Return ED50 measured with Rattus norvegicus given this molecule: COc1ccc2c(c1)c(CC(=O)O)c(C)n2C(=O)c1ccc(Cl)cc1 [INDOMETHACIN]
Solution: 5.4

###

The following compounds are shown together with reported ED50 values.
test system: Rattus norvegicus; assay: Toxicity in po dosed rat assessed as intestinal perforating ulcer; assay type: organism-based; settings: in vivo
Use mg/kg as the unit, but write only the number.

Exercise: Please give the measured ED50 for this compound: COc1ccc2c(c1)c(CC(=O)O)c(C)n2C(=O)c1ccc(Cl)cc1 [INDOMETHACIN]
Solution: 5.2

Exercise: What value of measured ED50 is listed for O=C(O)c1cc(-c2ccc(F)cc2F)ccc1O [DIFLUNISAL] ?
Solution: 520

Exercise: Bench note: what ED50 did CC1=C(CC(=O)O)c2cc(F)ccc2/C1=C\c1ccc([S+](C)[O-])cc1 (stereo not given) [SULINDAC] show?
Solution: 69

###

test: Plasma concentration in human at 250 mg, po after 2 hrs
measurement label: concentration at 2 h (ng/mL)
Report the value in ng/mL with no unit label.

Exercise: Return reported concentration at 2 h; argument: `O=C(O)c1cc(-c2ccc(F)cc2F)ccc1O`
Solution: 30000

###

test system: Rattus norvegicus; experiment: Antipyretic activity in po dosed rat; assay type: functional
Strictly below 30 mg/kg in ED50: label 1. Otherwise: label 0.

Illustrative cases are given below, each with its answer.
compound	assigned class
COc1ccc2c(c1)c(CC(=O)O)c(C)n2C(=O)c1ccc(Cl)cc1	label 1
CC(=O)Oc1ccc(-c2ccc(F)cc2)cc1C(=O)O	label 0

Exercise: Does CC(C)Cc1ccc(C(C)C(=O)O)cc1 (stereo unspecified) have ED50 strictly under 30 mg/kg?
Solution: label 1

###

tested on: Rattus norvegicus; test: Analgesic activity in po dosed rat assessed as inhibition of yeast-induced inflammatory pain; type: functional
Lab note: cut-off is 5 mg/kg. Strictly less in ED50 is criterion met. Exactly 5 mg/kg or more is criterion not met.

molecule	system under test	assigned class
CC1=C(CC(=O)O)c2cc(F)ccc2/C1=C\c1ccc([S+](C)[O-])cc1 (stereo unspecified)	Rattus norvegicus	criterion met

Exercise: Is the reported ED50 for CC(C)Cc1ccc(C(C)C(=O)O)cc1 (stereo unspecified) strictly below 5 mg/kg?
Solution: criterion met

Exercise: Answer whether the molecule `CC(=O)Oc1ccccc1C(=O)O` has ED50 strictly less than 5 mg/kg
Solution: criterion not met

Exercise: Consider the molecule `CC(=O)Oc1ccc(-c2ccc(F)cc2)cc1C(=O)O` . Is its ED50 strictly less than 5 mg/kg?
Solution: criterion not met

Exercise: Is it true that ED50 reported for `COc1ccc2c(c1)c(CC(=O)O)c(C)n2C(=O)c1ccc(Cl)cc1` is less than 5 mg/kg?
Solution: criterion met

Exercise: Hello, is ED50 of the following molecule strictly smaller than 5 mg/kg? `O=C(O)c1cc(-c2ccc(F)cc2F)ccc1O`
Solution: criterion met

###

Below are ED50 values measured for Cyclooxygenase (Homo sapiens) (UniProt P35354+P23219).

molecule	measurement label	value measured
CC(=O)Oc1ccc(-c2ccc(F)cc2)cc1C(=O)O [FLUFENISAL]	ED50	10 µg/mL
O=C(O)c1cc(-c2ccc(F)cc2F)ccc1O [DIFLUNISAL]	ED50	0.6 µg/mL

Turning now to a further record.
Exercise: Hello, I am looking for reported ED50 with Cyclooxygenase (Homo sapiens) (UniProt P35354+P23219) for CC(=O)Oc1ccccc1C(=O)O [ASPIRIN] . Could you help?
Solution: 13 µg/mL

###

tested on: Rattus norvegicus; test: Antipyretic activity in po dosed rat; assay type: functional
measurement label: ED50 (mg/kg)
Express the result in mg/kg but write the number alone.

Exercise: Find the recorded ED50 belonging to CC1=C(CC(=O)O)c2cc(F)ccc2/C1=C\c1ccc([S+](C)[O-])cc1 (stereo not drawn) and report it.
Solution: 2.9

Exercise: Item `CC(=O)Oc1ccccc1C(=O)O` has what recorded ED50?
Solution: 40

Exercise: Quick check: ED50 of `O=C(O)c1cc(-c2ccc(F)cc2F)ccc1O` ?
Solution: 27.8
